# Tested on: NCI/ADR-RES
# Assay info: NCI tumour cell line growth inhibition, 48 h
Calls of active or inactive are those of the source. No stated cut-off is given here; in the data, active = GI50 up to about 1.1 µM and inactive = higher.
Pick from true (1) for active, false (0) for inactive when you respond.

Examples from the recorded data:
CCOC(=O)C1=C(C)N(Cc2ccccc2)C2(O)C=CC(=O)C3C(=O)N(c4ccccc4)C(=O)C132 (configuration not stated) ... false (0)
CC(=O)OCCC[C@@H]1C(=C(C)C)CCC2[C@@]1(C)CC[C@@]1(C)C[C@](C)(CCC=C(C)C)CC[C@]21C (some centres not stated) ... false (0)
O=[N+]([O-])c1cn[n+]([O-])c2ccccc12 ... false (0)
Clc1ccc(CN2CCCN(Cc3ccc(Cl)cc3)C2c2cc3ccccc3c3ccccc23)cc1 ... false (0)
CN(Cc1cc(Cl)cc(Cl)c1)CC(C(=O)c1ccccc1)c1ccccc1 (configuration not stated) ... false (0)

Ask | What outcome does the record of this test show for `Cc1ncc(-c2nnnn2-c2ccccc2)c(C(=O)O)n1` ?
Reply | false (0)

Ask | Per the assay record, what outcome was assigned to `COc1cc(O)c2c(=O)c3c(C)cccc3n(C)c2c1` ?
Reply | false (0)

Ask | Hi team, can someone confirm the assay call for `O=c1c(Cl)c(Cl)c(=O)c2sc3cc(Cl)ccc3[nH]c1=2` ?
Reply | false (0)

Ask | Kindly provide the recorded test outcome for the following compound: C/C=C(\C)C(=O)OC1C2C(C)C(=O)OC2C(O)C(C)C2C=CC(=O)C21C (configuration not stated)
Reply | false (0)

Ask | Dear all, I need the recorded test outcome for `COc1ccc(-n2nnnc2C2(Nc3ccccc3)CCN(Cc3ccccc3)CC2)cc1` , thank you.
Reply | false (0)
